target: Sodium-dependent noradrenaline transporter (Homo sapiens, UniProt P23975); test: Displacement of [3H]-norepinephrine from human NET expressed in CHO cells by TopCounting analysis
Sequence (P23975 whole entry): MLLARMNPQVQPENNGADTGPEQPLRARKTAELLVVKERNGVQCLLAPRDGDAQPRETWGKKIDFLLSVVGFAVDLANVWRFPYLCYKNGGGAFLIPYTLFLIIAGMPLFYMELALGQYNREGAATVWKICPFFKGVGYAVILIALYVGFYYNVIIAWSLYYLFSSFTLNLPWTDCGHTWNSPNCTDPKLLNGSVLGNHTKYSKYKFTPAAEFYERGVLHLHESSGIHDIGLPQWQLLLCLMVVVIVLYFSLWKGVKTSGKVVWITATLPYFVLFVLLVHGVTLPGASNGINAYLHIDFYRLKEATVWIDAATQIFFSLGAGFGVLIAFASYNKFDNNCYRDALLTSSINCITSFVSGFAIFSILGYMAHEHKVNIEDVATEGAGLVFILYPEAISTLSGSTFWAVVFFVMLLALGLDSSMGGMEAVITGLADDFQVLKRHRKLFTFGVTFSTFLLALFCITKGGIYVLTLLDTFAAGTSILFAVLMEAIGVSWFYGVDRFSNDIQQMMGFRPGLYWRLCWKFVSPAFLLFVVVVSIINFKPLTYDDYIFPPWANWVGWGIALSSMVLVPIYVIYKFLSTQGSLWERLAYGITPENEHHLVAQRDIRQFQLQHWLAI
observed.property: IC50 (µM)
Answers are plain numbers, in µM.

Known results for compounds:
1. CC(c1ccc(Cl)c(Cl)c1)C1CCNCC1.Cl (racemic)	0.025
2. CSCC(c1ccc(Cl)c(Cl)c1)C1CCNCC1.Cl (racemic)	0.0093

Count: 6. Required value per item: IC50.
1. CCOC(=O)C(c1ccc(Cl)c(Cl)c1)C1CCNCC1 (racemic)
2. CS(=O)(=O)CC(c1ccc(Cl)c(Cl)c1)C1CCNCC1 (racemic)
3. COC(=O)C(c1ccc(Cl)c(Cl)c1)C1CCNCC1 (racemic)
4. COC[C@H](c1ccc(Cl)c(Cl)c1)C1CCNCC1.Cl
5. CC(=O)C(c1ccc(Cl)c(Cl)c1)C1CCNCC1.Cl (racemic)
6. COC[C@@H](c1ccc(Cl)c(Cl)c1)C1CCNCC1.Cl

1. 0.012
2. 0.2
3. 0.018
4. 0.015
5. 0.044
6. 0.021

Count: 3. Required value per item: IC50.
1. COCC(c1ccc(F)c(Cl)c1)C1CCNCC1 (racemic)
2. OCC(c1ccc(Cl)c(Cl)c1)C1CCNCC1 (racemic)
3. CCC(=O)C(c1ccc(Cl)c(Cl)c1)C1CCNCC1 (racemic)

[0.07, 0.11, 0.028]

The reported numbers originate from ChEMBL document CHEMBL2406994.
